Test system: ACHN renal
measurement description: NCI tumour cell line growth inhibition, 48 h
List of TGI values.
measured metric: TGI

compound	val
O=C(O)c1ccccc1/C=N/NC1=NCCCCN1	> 100 µM
O=C(Oc1ccccc1Cl)c1ccccc1Nc1ccnc(C(F)(F)F)c1	0.808 µM
COc1ccc2c(c1)[n+](=O)c(C(=O)/C=C/c1cc(OC)c(OC)c(OC)c1)c(C)n2[O-]	28.8 µM
COc1ccc2c(c1)CCC1=CC3(CCC12C)SCCS3 (centres undefined)	> 10 µM
COc1cc2c(cc1OC)C(N)CC2=O (centres undefined)	> 100 µM
COc1ccc(C(=O)COc2cccc(/C=C3\CSc4ccc(C)cc4C3=O)c2)cc1	> 100 µM
Cc1cc(NS(=O)(=O)c2ccc(Nc3c4ccccc4nc4ccc(C(=O)Nc5ccc(S(N)(=O)=O)cc5)cc34)cc2)no1	> 100 µM
C[C@]12[C@@H]3CC[C@H]1[C@@H](OC(=O)Nc1cc([N+](=O)[O-])cc([N+](=O)[O-])c1)C(=O)N2CC3	> 100 µM
CC#CCCN(CC#N)Cc1ccccc1	48 µM
CC(=O)OCC1O[C@@H]([S-])C(OC(C)=O)[C@H](OC(C)=O)[C@@H]1OC(C)=O.[Au+].c1ccc(CN2[CH-]N(Cc3ccccc3)C(c3ccccc3)=C2c2ccccc2)cc1	3.51 µM
Cc1ccc(O)c(C(=O)CCCC(=O)c2cc(C)ccc2O)c1	> 100 µM
COc1cc2cc(c1Cl)N(C)C(=O)C[C@H](OC(=O)[C@H](C)N(C)C(C)=O)[C@]1(C)O[C@H]1[C@H](C)[C@@H]1C[C@@](O)(NC(=O)O1)[C@H](OC)C=C/C=C(\C)C2	0.0595 µM
CCCCCCCCCCCCOC1C(CNC(=O)C2OC3OC(C)(C)OC3C2NC(=O)CN2CCCCCC2)OC2OC(C)(C)OC21 (centres undefined)	25.3 µM
CC(C)C1OC(/C=C/c2ccccc2)OCC1(C)C (centres undefined)	> 100 µM
Cc1ccc(C)c(NC(=O)CCc2nc(=S)[nH][nH]2)c1	> 100 µM
Nc1nnc(Cn2c(-c3ccccc3)nc3ccc(Br)cc3c2=O)s1	> 100 µM
CN(C)c1n/c(=N/c2ncn[nH]2)ss1	> 100 µM
COc1c(O)c2c(=O)cc(OC)c3c4c(OC)cc(=O)c5c(O)c(OC)c6c(c(c1C(C(C)=O)C6C(C)O)c23)c54 (centres undefined)	1.09 µM
Cc1c(C)c(S(=O)(=O)N(CCCN)OCCCN)c(C)c2c1OC(C)(C)C2	> 100 µM
Cc1ccc2[nH]c3c(ncc4[nH]c5ccccc5c43)c2c1	30.3 µM
O=C1/C(=C/c2ccccc2)CN(C(=O)OCc2ccccc2)C/C1=C\c1ccccc1	25.7 µM
CCCCCCCCCCCCN(O)C(=O)c1ccccc1	> 100 µM
C=C1C(=O)O[C@H]2[C@H]1CC(=O)/C(C)=C/CC[C@@]1(C)O[C@@H]21	1.44 µM
Cc1ccc(S(=O)(=O)Cc2nc(-c3ccc(C(=O)NCc4cccnc4)cc3)oc2C)cc1	> 100 µM
CCOC(=O)c1cc2c(n1Cc1ccccc1)-c1oncc1CC2	89 µM
Cc1c2c(n(CCN(C)C)c1C)NN=C(C#N)S2(=O)=O	> 100 µM
C=CC[C@@]1(C)CCCCCCCCC[C@@](C)(CC=C)C1=O	> 100 µM
O=C1/C(=C/c2ccc(Cl)cc2)N=C(c2ccccc2)N1c1ccc(S(=O)(=O)Nc2nccs2)cc1	> 100 µM
COC(OC)[C@@H](C)[C@H](O)[C@](C)(O)C1OC(C)(C)OC(C(C)C=C(C)C)C1C (some centres undefined)	> 100 µM
Cn1c2cc(O)cc(O)c2c(=O)c2c([N+](=O)[O-])cccc21	> 100 µM
Cc1cc(C)c(S(=O)(=O)ONC(=O)OC(C)(C)C)c(C)c1	> 100 µM
CCC(C(=O)[O-])C(=O)[O-].CCC(C(=O)[O-])C(=O)[O-].N.N.NCCCCCCN.[Pt+4].[Pt+4]	13.4 µM
O=C(c1ccccc1)c1nc2ccc(C(F)(F)F)cc2[n+]([O-])c1C(F)(F)F	> 100 µM
COc1cccc2[nH]c(-c3ccccn3)nc12	> 100 µM
COc1ccc(/C=C2\N=C(NN)N=C2Cl)cc1	> 100 µM
CCCCC#CC#Cc1cccc(=O)o1	28.7 µM
C=C(C)[C@@H]1CC[C@]2(COC3CCCCO3)CC[C@]3(C)[C@H](CC[C@@H]4[C@@]5(C)C=C(C=O)C(=O)C(C)(C)[C@@H]5CC[C@]43C)[C@@H]12 (some centres undefined)	2.52 µM
C=C1CN(Cc2ccccc2)[C@@H]2CCCCC[C@H](C#N)[C@H]12	> 100 µM
CC(C)(C)C(=O)O[C@@H]1COC2C(O)COC21 (some centres undefined)	> 100 µM
